Molecular target: c-Src SH2;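 also: peptide library displayed on the E. coli surface as eCPX fusions, selected cells deep-sequenced, score is each peptide's frequency after selection divided by its frequency in the input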
Experiment: SH2 binding enrichment of the phosphorylated peptide, bacterial display (enrichment ratio); higher = better substrate or ligand; peptides without Tyr show the background
Classes based on SH2 binding enrichment: class 0 = under 0.5, class 1 = from 0.5 up to 0.7, class 2 = 0.7 and over

INSERT INTO assay_data (residue_string, label_value) VALUES
  ('LIGRGYDDPEV [HSPA9_Y128_R127G]', 'class 2'),
  ('LARDMHDKEYY [MET_Y1230_Y1230H]', 'class 0'),
  ('HYVYYYSYLLK [PTEN_Y178_R173H]', 'class 0'),
  ('NALAQYQEMEK [BBS4_Y395]', 'class 2'),
  ('NHYKICNLCAE [PTEN_Y68_Y68C]', 'class 2'),
  ('GNEEAYGSSHI [FAM171B_Y522_R524S]', 'class 0'),
  ('QRIFQYIQSRF [DYRK1B_Y273_YF]', 'class 2'),
  ('RLLRGYNQSAY [HLA-C_Y137_D138N]', 'class 2'),
  ('CNLDTYQKRLR [PLA2G2D_Y126_R121C]', 'class 1'),
  ('TDTQLYGRFGS [ITGA2B_Y384_G380D]', 'class 0');

[in] State the band of ADARMYGVLPW [PLP1_Y207]
[out] class 0

[in] Another sequence: RWGQKYMTAVV [CYBA_Y72]
[out] class 2

[in] Another sequence: ADEEEYEIIAA [FEStide_E_2014]
[out] class 1

[in] Another sequence: KWHREYNSKYV [RICTOR_Y835]
[out] class 2

[in] Another sequence: QNTGNYFDLFG [PTPN11_Y62_D61N_YF]
[out] class 1
